# fold difference in affinity vs original annotations
Biological target: binding partner of C5A (XPA23)
Assay: Biacore K-off
Reply with just the number (in fold).

Per the records, this binder ( C5A (XPA23) VL Q27T (antibody, V domains shown) VH: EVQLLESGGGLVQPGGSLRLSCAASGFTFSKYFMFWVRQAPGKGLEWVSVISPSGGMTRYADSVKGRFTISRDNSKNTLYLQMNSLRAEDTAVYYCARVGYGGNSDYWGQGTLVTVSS VL: DIQMTQSPSSVSASVGDRLTIICRASTDINRWLAWYQQTPGNAPKLLIHSATSLQSGVPSRFSGSGSGTDFTLTINSLQPEDFATYYCQQADSFPLTFGGGTKVEIK ) has fold difference in affinity vs original equal to 0.64

# binder C5A (XPA23) VH Y32F (antibody, V domains shown) VH: EVQLLESGGGLVQPGGSLRLSCAASGFTFSKFFMFWVRQAPGKGLEWVSVISPSGGMTRYADSVKGRFTISRDNSKNTLYLQMNSLRAEDTAVYYCARVGYGGNSDYWGQGTLVTVSS VL: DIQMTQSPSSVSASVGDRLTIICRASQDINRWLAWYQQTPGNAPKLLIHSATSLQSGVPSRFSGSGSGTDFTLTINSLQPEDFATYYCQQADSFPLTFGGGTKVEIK ; its fold difference in affinity vs original = 0.75
